Test system: CD117
test: Gene editing of CD117 in TF-1 cells, loss of SR-1 binding by FACS
Type: cell-based, human
condition_info: FACS 7 days after electroporation with Cas9, crRNA/tracrRNA or sgRNA and HDR template
Mark T only when KnockOut Efficiency (loss of binding of SR-1 compared to wild type cells) stays strictly below 50%. Values equal to the cut-off are F.

KIT_E73_1: crRNA CTGATCCGGGCTTTGTCAAA, SEQ ID NO: 3, targets E73 of CD117 (chemistry not given here); T
KIT_E73_5: crRNA ATGAGAATAAGCAGAATGAA, SEQ ID NO: 7, targets E73 of CD117 (chemistry not given here); F
KIT_120_123_3: crRNA TTGTTGACCGCTCCTTGTAT, SEQ ID NO: 11, targets residues 120-123 of CD117 (chemistry not given here); F
KIT_120_123_2: crRNA CTTCTTTCCCATACAAGGAG, SEQ ID NO: 10, targets residues 120-123 of CD117 (chemistry not given here); F
KIT_120_123_5: crRNA CATACAAGGAGCGGTCAACA, SEQ ID NO: 13, targets residues 120-123 of CD117 (chemistry not given here); F

Now take the following substance into account.
Task item: Below 50% on KnockOut Efficiency (loss of binding of SR-1 compared to wild type cells)? Entry KIT_E73_3: crRNA CAAATGGACTTTTGAGATCC, SEQ ID NO: 5, targets E73 of CD117 (chemistry not given here)
Reply: T
